Entries and their Solubility, Volume (at 10-20° C.) values follow.
Assay: Solubility of Compound 1 salts in organic solvents (solvent volumes)
Type: physicochemical
Conditions: IPA
Where a name gives a salt, the structure may show the parent alone.

Solved cases below.
> print(dat)
                                   compound                    recorded.metric   observed
1  CCn1nc(Cl)c2c1-c1cnc(N)c(c1)O[C@H](C)c1cc(F)ccc1-c1nn(C)cc1C2 [MSA salt]  Solubility, Volume (at 10-20° C.)    56-60 V
2  CCn1nc(Cl)c2c1-c1cnc(N)c(c1)O[C@H](C)c1cc(F)ccc1-c1nn(C)cc1C2 [TsOH salt]  Solubility, Volume (at 10-20° C.)     >400 V
3  CCn1nc(Cl)c2c1-c1cnc(N)c(c1)O[C@H](C)c1cc(F)ccc1-c1nn(C)cc1C2 [H3PO4 salt]  Solubility, Volume (at 10-20° C.)  140-150 V
4  CCn1nc(Cl)c2c1-c1cnc(N)c(c1)O[C@H](C)c1cc(F)ccc1-c1nn(C)cc1C2 [Maleic Acid salt]  Solubility, Volume (at 10-20° C.)    70-80 V
5  CCn1nc(Cl)c2c1-c1cnc(N)c(c1)O[C@H](C)c1cc(F)ccc1-c1nn(C)cc1C2 [Fumaric Acid salt]  Solubility, Volume (at 10-20° C.)      8-9 V

Asked: Field request: Solubility, Volume (at 10-20° C.) | item: CCn1nc(Cl)c2c1-c1cnc(N)c(c1)O[C@H](C)c1cc(F)ccc1-c1nn(C)cc1C2 [L-Tartaric Acid Salt]
Given back: 18-20 V

====

Experiment: Solubility of salts of Compound 2 and free base in distilled water (gravimetric)
Assay type: physicochemical
Conditions: distilled water, RT, stirred 3 days, gravimetric
Method: Solubility of the scaled-up salts of Compound 2 and free base Compound 2 was assessed in distilled water at RT. Approximately 30 mg of solid was weighed directly into 2 mL vials, and a 6 mm stir bar was added to each vial. Water was then incrementally added to the vials (starting with 1 vol.) and the resulting slurries were left to stir for 10-15 min prior to the next addition. […]
Counter-ions that a name gives are not always drawn.
Recorded Metric: Solubility (mg solid/mL water)

> print(dat)
                                   compound              observed
1  CCn1cc(Cc2cn(C)nc2-c2ccc(F)cc2[C@@H](C)Oc2cc(Br)cnc2N)c(Cl)n1 [Free Base]  <3 mg solid/mL water
2  CCn1cc(Cc2cn(C)nc2-c2ccc(F)cc2[C@@H](C)Oc2cc(Br)cnc2N)c(Cl)n1 [Camsylate Salt]  <3 mg solid/mL water

Now for the compound whose Solubility (mg solid/mL water) we want.
Asked: Field request: Solubility (mg solid/mL water) | item: CCn1cc(Cc2cn(C)nc2-c2ccc(F)cc2[C@@H](C)Oc2cc(Br)cnc2N)c(Cl)n1 [Sulfate Salt]
Given back: <3 mg solid/mL water

====

Experiment: Solubility of Compound 1 salts in organic solvents (solvent volumes)
Format: physicochemical
Conditions: t-AmOH
Protocol: Preparation of Additional Salts: Additional salts shown in the Table below were prepared using procedures similar to those described above and the solubility of the resulting salts of Compound 1 was evaluated.
Counter-ions that a name gives are not always drawn.
Recorded Metric: Solubility, Volume (at 10-20° C.)

Solved cases below.
> print(dat)
                                   molecule  observed
1  CCn1nc(Cl)c2c1-c1cnc(N)c(c1)O[C@H](C)c1cc(F)ccc1-c1nn(C)cc1C2 [Maleic Acid salt]     6-8 V
2  CCn1nc(Cl)c2c1-c1cnc(N)c(c1)O[C@H](C)c1cc(F)ccc1-c1nn(C)cc1C2 [Citric Acid salt]   86-90 V

Now for the molecule whose Solubility, Volume (at 10-20° C.) we want.
Asked: Field request: Solubility, Volume (at 10-20° C.) | item: CCn1nc(Cl)c2c1-c1cnc(N)c(c1)O[C@H](C)c1cc(F)ccc1-c1nn(C)cc1C2 [HCl salt]
Given back: 18-20 V

Reference for the values: patent US20230322797A1
